Recorded values, source patent US12077503B2.

# Tested on: corn (Zea mays)
# protocol_summary: Test A postemergence
# Type: in vivo
# condition_description: Zea mays, post-emergence, 240 h, 125 g ai/ha, postemergence; visual injury after approximately 10 d; 0 to 100 scale (0 no effect, 100 complete control)
# Corn plant response rating (crop injury, 0 = no effect, 100 = complete kill) at 125 g/ha >= 30% gives true (1), anything below gives false (0)

In [3]: df
Out[3]:
                           substance_smiles  assigned_label
0  Cc1ccc([C@H]2CNC(=O)[C@@H]2C(=O)Nc2cccc(F)c2F)s1       false (0)
1  Cc1cc([C@H]2CNC(=O)[C@@H]2C(=O)Nc2ccc(F)cc2F)ccc1F       false (0)
2  CN1C[C@H](c2ccc3c(c2)CCC3)[C@@H](C(=O)Nc2ccccc2F)C1=O        true (1)
3  Cc1ccc([C@H]2CNC(=O)[C@@H]2C(=O)Nc2cccc(F)c2F)c(F)c1       false (0)
4  CC(F)(F)c1cccc([C@H]2CNC(=O)[C@@H]2C(=O)Nc2ccccc2S(C)(=O)=O)c1        true (1)
5  CSc1ccccc1NC(=O)[C@H]1C(=O)N(C)C[C@@H]1c1cc(C)c(C)c(C)c1        true (1)
6  COc1cc([C@H]2CN(C)C(=O)[C@@H]2C(=O)Nc2cccc(F)c2F)ccc1C(F)(F)F        true (1)

====

# Test system: blackgrass (Alopecurus myosuroides)
# protocol_summary: Test A postemergence
# Format: in vivo
# condition_description: Alopecurus myosuroides, post-emergence, 240 h, 500 g ai/ha, postemergence; 0 to 100 scale, 0 is no effect, 100 is complete control; read-out: Blackgrass plant response rating
Recorded pest or weed control at 500 g/ha by entry
measured_property: pest or weed control at 500 g/ha (%)

In [3]: df
Out[3]:
                                    compound                 measured_property  reported_value
 0  CCc1cccc([C@H]2CCNC(=O)[C@@H]2C(=O)Nc2cccc(F)c2F)c1  pest or weed control at 500 g/ha              40
 1  COc1ccc([C@H]2CN(C)C(=O)[C@@H]2C(=O)Nc2ccccc2F)c(OC)c1  pest or weed control at 500 g/ha               0
 2  CSc1ccccc1NC(=O)[C@H]1C(=O)NC[C@@H]1c1ccc(F)c(C#N)c1  pest or weed control at 500 g/ha               0
 3  CN1CC(c2cccc(O)c2)C(C(=O)Nc2cccc(F)c2F)C1=O (centres unmarked)  pest or weed control at 500 g/ha               0
 4  CC(C)Oc1ccc([C@H]2CNC(=O)[C@@H]2C(=O)Nc2cccc(F)c2F)cc1  pest or weed control at 500 g/ha              30
 5  CC(C)Oc1ccc([C@H]2CNC(=O)[C@@H]2C(=O)Nc2ccccc2F)cc1  pest or weed control at 500 g/ha               0
 6  CN1C[C@H](c2cc(F)cc(C(F)(F)F)c2)[C@@H](C(=O)Nc2cccc(F)c2F)C1=O  pest or weed control at 500 g/ha              80
 7  COc1cc([C@H]2CN(C)C(=O)[C@@H]2C(=O)Nc2ccccc2F)cc(OC)c1OC  pest or weed control at 500 g/ha               0
 8  Cc1cc([C@H]2CN(C)C(=O)[C@@H]2C(=O)Nc2ccccc2F)ccc1Br  pest or weed control at 500 g/ha              30
 9  CSc1ccccc1NC(=O)[C@H]1C(=O)N(C)C[C@@H]1c1ccc(C(F)(F)F)nc1  pest or weed control at 500 g/ha              60
10  O=C1NC[C@H](c2ccc3sccc3c2)[C@H]1C(=O)Nc1cccc(F)c1F  pest or weed control at 500 g/ha              50
